assay: RP, Waters ACQUITY Premier BEH C18, 100 × 2.1 mm, 1.7 µm, 40 °C, 0.3 to 0.4 mL/min, estimated dead time 0.73 min; A: water + 0.1% formic acid; B: acetonitrile + 0.1% formic acid; gradient (min/%B) 0/0.5 0.1/0.5 10/80 10.1/99.5 12/0.5 12.1/0.5 14.5/0.5; conditions: stereoisomer not certain
Provide the recorded LC retention time for the entries that follow.
Answers are plain numbers, in min.

COMPOUND: O=C1CC(C(=O)O)NC(=O)N1 (centres undefined) [4,5-DIHYDROOROTIC ACID]
OBSERVED_PROPERTY: LC retention time
NUMERIC_READOUT: 1.12

Can you give me LC retention time for all of these, one by one?
1. Cc1cn(C2OC(CO)C(O)C2O)c(=O)nc1N (centres undefined) [5-METHYLCYTIDINE]
2. CC(CCC(=O)O)C1CCC2C3C(=O)CC4CC(O)CCC4(C)C3CCC12C (centres undefined) [NUTRIACHOLIC ACID]
3. CC(=O)OC(C)(C)C=CC(=O)C(C)(O)C1C(O)CC2(C)C3CC=C4C(CC(O)C(=O)C4(C)C)C3(C)C(=O)CC12C (centres undefined) [CUCURBITACIN B]

1. 2.36
2. 7.25
3. 7.07

---

test: RP, Waters ACQUITY Premier BEH C18, 100 × 2.1 mm, 1.7 µm, 40 °C, 0.3 to 0.4 mL/min, estimated dead time 0.73 min; A: water + 0.1% formic acid; B: acetonitrile + 0.1% formic acid; gradient (min/%B) 0/0.5 0.1/0.5 10/80 10.1/99.5 12/0.5 12.1/0.5 14.5/0.5; conditions: stereoisomer not certain
Note: every record was labeled by where its LC retention time sits among low interval: < 2 min; middle interval: ≥ 2 min and < 5 min; high interval: ≥ 5 min

Use the examples below as a reference point.
COMPOUND: Cc1cn(C2CC(O)C(COP(=O)(O)OP(=O)(O)OC3OC(CO)C(O)C(O)C3O)O2)c(=O)[nH]c1=O (stereo not given)
ASSIGNED_LABEL: low interval
--
COMPOUND: CC1(O)CCOC(=O)C1 (stereo not given)
ASSIGNED_LABEL: middle interval
--
COMPOUND: NC(CCOC(=O)CCC(=O)O)C(=O)O (stereo not given)
ASSIGNED_LABEL: low interval
--
COMPOUND: CC(C(=O)O)C(O)(CC(=O)O)C(=O)O (stereo not given) [2-METHYLCITRATE]
ASSIGNED_LABEL: middle interval
--
COMPOUND: CC(=O)NC(CCC(=O)O)C(=O)O (stereo not given) [N-ACETYLGLUTAMATE]
ASSIGNED_LABEL: middle interval
--
COMPOUND: CCCCCC(O)CC(=O)CCc1ccc(O)c(OC)c1 (stereo not given)
ASSIGNED_LABEL: high interval
--
COMPOUND: CCCCCCCCCCCC=CCCCCC(=O)O [PETROSELINATE]
ASSIGNED_LABEL: high interval
--
COMPOUND: Nc1c(O)cccc1C(=O)CC(N)C(=O)O (stereo not given) [HYDROXYKYNURENINE]
ASSIGNED_LABEL: middle interval
--
COMPOUND: CCCCCCCCCCCCCC(O)CC(=O)O (stereo not given) [3-HYDROXYHEXADECANOIC ACID]
ASSIGNED_LABEL: high interval

Hi there! Could you help me figure out the category for "Cc1cc2nc3[nH]c(=O)[nH]c(=O)c3nc2cc1C" please?
high interval
